The reader will find reported viability values listed item by item below.
assay: lymphocyte viability (LCV) assay; assay type: cell-based, murine; conditions: mouse, splenocytes, 10 ug/well; percentage of positive LCV control (no compound)
Please respond with the number in % and leave the unit unwritten.

{"COMPOUND": "C#CC(O)C=CCCCCCCCCCCCCCC(C)C (centres unmarked)", "UOM": "%", "MEASURED_VALUE": 10}
{"COMPOUND": "C#CC(O)C=CCCCCCCCCCC=CCCCCC(C)C (centres unmarked)", "UOM": "%", "MEASURED_VALUE": 0}
{"COMPOUND": "C#CC(O)C=CCCCCCCCCCCC(C)CCCC (centres unmarked)", "UOM": "%", "MEASURED_VALUE": 8}
{"COMPOUND": "C#CC(O)C=CCCCCCCCCCCCCCCC (centres unmarked)", "UOM": "%", "MEASURED_VALUE": 2}

Please find the next compound below.
Query: Report viability for C#CC(O)C=CCCCCCCCCCC=CCCCCCC (centres unmarked) please.
Result: 22
